Tested on: CEM cells HIV-1 protection, formazan growth assay
Assay: NCI AIDS Antiviral Assay
Settings: measured here: growth of uninfected CEM cells
pIC50: −log10 of the molar value.
Kindly state pIC50 for each of the entries shown.

Can you give me pIC50 for all of these, one by one?
1. CC(C)(C)OC(=O)N1CCc2[nH][nH]c(=O)c2C1
2. O=C1c2ccccc2CC12Cc1cc3c(cc1C2=O)CCC3 (stereo not drawn)
3. COC(=O)c1c(O)c(C#N)c2[nH]c3ccccc3n2c1=O
4. CCCN1C(=O)c2cc(=O)n(Cc3ccccc3)c(O)c2C1C (stereo not drawn)

## Result
["< 3.70", "< 3.70", "< 4.00", "< 3.94"]

----------
System: CEM cells HIV-1 protection, formazan growth assay
Experiment: NCI AIDS Antiviral Assay
pEC50: −log10 of the molar value.
recorded metric: pEC50

Some solved entries appear below for comparison.
molecule	experimental target	pEC50
CC1(C)OC2OC(C(O)COC(=O)c3ccccc3)C(F)C2O1 (stereo not drawn)	CEM cells HIV-1 protection, formazan growth assay	< 3.68
CCOC(=O)n1c2ccccc2c2c(O)c(OC)c3c(c21)C(=O)NC3=O	CEM cells HIV-1 protection, formazan growth assay	< 3.70

## Task I'd like to know its pEC50. The molecule in question is C=C1C(C)C2C(Cc3ccccc3)NC(=O)C23C(OC(C)=O)/C=C/C(C)(O)CC(C)C/C=C/C3C1O (stereo not drawn)
## Result < 5.70

----------
Test system: CEM cells HIV-1 protection, formazan growth assay
Test: NCI AIDS Antiviral Assay
Kindly state EC50 for each of the entries shown.

Some solved entries appear below for comparison.
compound	experimental target	observed measurement
CCCCCCCCCCCCCCCCCCOCC(COP(=O)([O-])OCC[N+](C)(C)C)OC (stereo not drawn)	CEM cells HIV-1 protection, formazan growth assay	> 10.2 µM
N#C/C(=C\c1ccc(Cl)cc1)c1ccccc1	CEM cells HIV-1 protection, formazan growth assay	> 200 µM
Cc1ccc(C2NC(=O)N3C(c4ccc(C)cc4)NC(=O)N23)cc1 (stereo not drawn)	CEM cells HIV-1 protection, formazan growth assay	> 200 µM
CCOC(=O)c1cc(-c2ccc(OC)c(OC)c2)c[nH]1	CEM cells HIV-1 protection, formazan growth assay	> 200 µM
O=C1c2ccccc2C2(O)N(c3ccccc3)C(=S)N(c3ccccc3)C12O (stereo not drawn)	CEM cells HIV-1 protection, formazan growth assay	> 646 µM
O=C1c2ccccc2C(=O)N1CCc1ncc[nH]1	CEM cells HIV-1 protection, formazan growth assay	> 200 µM
CN(C)C(=N)OCc1ccccc1	CEM cells HIV-1 protection, formazan growth assay	> 200 µM
CC1(C)CC(=O)c2c(nc3ccc4ccccc4c3c2-c2ccc(NC(=O)CCCCCCCCC(=O)Nc3ccc(-c4c5c(nc6ccc7ccccc7c46)CC(C)(C)CC5=O)cc3)cc2)C1	CEM cells HIV-1 protection, formazan growth assay	> 100 µM

Can you give me EC50 for all of these, one by one?
1. CC1(C)C2C3CCC2C2C[S+]1CC23
2. CCCc1cc(=O)oc2c3c(c4c(c12)OC(C)(C)C=C4)O[C@H](C)[C@H](C)[C@@H]3O
3. Cn1ccnc1CCc1ccc(Cl)c(Cl)c1

## Result
1: > 162 µM; 2: > 87.1 µM; 3: > 851 µM

Can you give me EC50 for all of these, one by one?
1. COC(=O)/C=C/C(=N/Nc1ccccc1)c1ccccc1
2. CCOC(=O)/C(C1=N[C@H](C(=O)OCC)CS1)=C(\C)O

## Result
> 200 µM
> 631 µM

----------
Test system: CEM cells HIV-1 protection, formazan growth assay
Assay: NCI AIDS Antiviral Assay
Conditions: measured here: growth of uninfected CEM cells
Kindly state pIC50 for each of the entries shown.
Answers are plain numbers, as −log10 of the molar value.

compound	pIC50
C=C1C(=O)OCC2C(C(=O)O)=CC3C(C)C(C)=CC123 (centres undefined)	4.95

## Task I'd like to know its pIC50. The compound in question is N#C/C(=C\c1cccc(Cl)c1)C(=O)c1ccccc1
## Result 4.26

----------
System: CEM cells HIV-1 protection, formazan growth assay
Test: NCI AIDS Antiviral Assay;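 active = compounds giving half or more protection of infected cells from virus-caused growth loss, again on retest; inactive = the rest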
One label from this list, please: active, inactive

compound	cat
O=P1(O)Cc2ccccc2-c2ccccc21	inactive
C[CH2][Ge]([CH2]C)([CH2]C)[O]C(=O)C([O][Ge]([CH2]C)([CH2]C)[CH2]C)c1ccccc1 (stereo not drawn)	inactive
COc1cc2c(cc1O)C(=O)OC1CC=C3CC[N@@+](C)([O-])[C@H]3C21 (stereo partly drawn)	inactive
CC(CCc1ccccc1)NCC(O)n1c(/N=N/N(C)C)nc2c1c(=O)n(C)c(=O)n2C (stereo not drawn)	inactive

## Task Which outcome was entered for the compound Clc1ccc(-c2cc(-c3cc(-c4ccc(Cl)cc4)n[nH]3)[nH]n2)cc1 in this test?
## Result inactive

## Task Which outcome was entered for the compound CC(C)=CC(=O)O[C@@H]1CC(C)(C)CC2C3=CCC4[C@]56CC[C@](O)(OC5)C(C)(C)C6CC[C@@]4(C)C3(C)CC[C@]21C(=O)O (stereo partly drawn) in this test?
## Result inactive

## Task Which outcome was entered for the compound CCC(C)/C(=C\C(=O)O)C(=O)O (stereo not drawn) in this test?
## Result inactive

## Task Which outcome was entered for the compound Cc1ccsc1C(=S)Nc1ccc(Cl)c(/C=N/OC(C)(C)C)c1 in this test?
## Result active

## Task Which outcome was entered for the compound N/C(=N\NS(=O)(=O)c1ccccc1)Oc1ccc(Br)cc1Br in this test?
## Result inactive

## Task Which outcome was entered for the compound CCCCCC1OC1C/C=C\CCCCCCCC(=O)OCC(O)COC(=O)CCCCCCC/C=C\CC1OC1CCCCC (stereo not drawn) in this test?
## Result inactive

## Task Which outcome was entered for the compound O=C1NC(=O)C(=Cc2ccc(-c3ccccc3)cc2)C(=O)N1 in this test?
## Result inactive

## Task Which outcome was entered for the compound O=C(N/N=C/c1ccco1)c1cccnc1 in this test?
## Result inactive

## Task Which outcome was entered for the compound CC1=C(/C=C/C(C)=C/C=C(C(=O)O)\C(C)=C\C(=O)O)C(C)(C)CCC1 in this test?
## Result inactive

## Task Which outcome was entered for the compound Nc1ccc(/C=C/c2ccc(N=Nc3ccc(/C=C/c4ccc(N=Nc5ccc(/C=C/c6ccc(N=Nc7ccc(/C=C/c8ccc(N)cc8S(=O)(=O)O)c(S(=O)(=O)O)c7)cc6S(=O)(=O)O)c(S(=O)(=O)O)c5)cc4S(=O)(=O)O)c(S(=O)(=O)O)c3)cc2S(=O)(=O)O)c(S(=O)(=O)O)c1 in this test?
## Result active

## Task Which outcome was entered for the compound Cc1cc(Nc2ccc(S(=O)(=O)O)c3cc(S(=O)(=O)O)cc(S(=O)(=O)O)c23)c2ccccc2n1 in this test?
## Result inactive

## Task Which outcome was entered for the compound N#CCCN(c1ccc(C=O)cc1)S(=O)(=O)c1ccccc1 in this test?
## Result inactive

## Task Which outcome was entered for the compound O=C(CCCN1CCC2(CC1)NC(=O)c1ccccc1O2)c1ccc(F)cc1 in this test?
## Result inactive

## Task Which outcome was entered for the compound Cc1ccc(Nc2nc3ccccc3nc2NS(=O)(=O)c2ccc(N)cc2)cc1 in this test?
## Result inactive

## Task Which outcome was entered for the compound N#CCCC1(CCC#N)CCCCCCCCC(CCC#N)(CCC#N)C(=O)C1=O in this test?
## Result inactive

## Task Which outcome was entered for the compound CCOc1cc2c(cc1O)/C(=N\N)C[C@@H]1[C@@H]2CC[C@]2(C)[C@@H](O)CC[C@@H]12 in this test?
## Result inactive

## Task Which outcome was entered for the compound Cc1ccc(-c2n[nH]c(=O)[nH]2)cc1 in this test?
## Result inactive

## Task Which outcome was entered for the compound O=S(=O)(N=[Se](=O)(c1ccccc1)c1ccccc1)c1ccccc1 in this test?
## Result inactive

## Task Which outcome was entered for the compound CN1C(=O)n2c(nc3ccccc32)C(N=[N+]=[N-])(N=[N+]=[N-])C1=O (stereo not drawn) in this test?
## Result inactive

## Task Which outcome was entered for the compound Cc1ccc(NC(=O)CC(=O)N2N=C(N3CCCCC3)CC2c2ccccc2)cc1 (stereo not drawn) in this test?
## Result inactive

----------
Test system: CEM cells HIV-1 protection, formazan growth assay
Assay: NCI AIDS Antiviral Assay
Details: measured here: growth of uninfected CEM cells
Where a SMILES comes first, the peptide text is derived from it. [ ]: non-standard residue; d: D form. The star is where a group is joined. AllylGly = C=CC[CH](N)C(=O)O; Boc = CC(C)(C)OC(=O)*; OtBu = CC(C)(C)O*
recorded metric: pIC50
One number for each entry, as −log10 of the molar value.

compound	experimental target	observed measurement
O=S1(=O)CC2(N3CCCCC3)CCCCC21 (configuration not stated)	CEM cells HIV-1 protection, formazan growth assay	3.66
c1ccc(SCN2CCN(CSc3ccccc3)CC2)cc1	CEM cells HIV-1 protection, formazan growth assay	5.24
C=CCC(NC(=O)C(CC(=O)OC(C)(C)C)NC(=O)OC(C)(C)C)C(=O)OC (configuration not stated) (Boc-Asp(OtBu)-[AllylGly]-OMe; configuration not given here)	CEM cells HIV-1 protection, formazan growth assay	4.01

Can you give me pIC50 for all of these, one by one?
1. Cc1cc2ccccc2c[n+]1CC(=O)CC([O-])(C(F)(F)F)C(F)(F)F
2. Cc1cc(NS(=O)(=O)c2ccc(NC(=O)c3cccc4c(NNc5ccc(S(=O)(=O)N=C(N)N)cc5)c5ccccc5nc34)cc2)no1
3. CC(=O)OC(=C(C#N)C#N)c1nccnc1C(C)=O
4. O=C1c2c(ccc3c2CCCC3)CC12Cc1ccccc1C2

## Result
4.02
4.20
4.95
4.65

Where do these numbers come from? They come from PubChem BioAssay AID179.
